All figures here come from PubChem BioAssay (NCI).

# Test system: MCF7 breast
# assay-text: NCI tumour cell line growth inhibition, 48 h
measured-metric: TGI

INPUT: What is its TGI for MCF7 breast? Entry: `CN(C)CCNc1ccc2nnn3c4ccccc4c(=O)c1c23`
OUTPUT: 25.2 µM

INPUT: Lookup `CC(C)OC(=O)C1=C2c3ncccc3C(=O)N2[C@@H](Cl)[C@H](Cl)[C@H]1Cl`
OUTPUT: > 100 µM

INPUT: Lookup `CC(C)(C)c1ccc(C(C)(C)C)c(N2C(=O)[C@@H]3[C@@H]4C=C[C@@H](C4)[C@]3(C)C2=O)c1`
OUTPUT: > 100 µM

INPUT: Lookup CC(=O)OC1C2CCC1C1C2N=NN1c1ccc([N+](=O)[O-])cc1 (centres undefined)
OUTPUT: > 100 µM

INPUT: Lookup `Cc1cc(Nc2ccc(S(=O)(=O)O)cc2)c2ccccc2n1`
OUTPUT: > 100 µM

INPUT: Lookup `C=CCN1CCN([C@H](c2ccc(C(=O)N(CC)CC)cc2)c2cccc(OC)c2)CC1`
OUTPUT: > 25 µM

INPUT: Lookup COc1ccc(C(=O)NCCC2CN(S(=O)(=O)C(F)(F)F)c3ccccc32)c(OC)c1 (centres undefined)
OUTPUT: > 100 µM

INPUT: Lookup `CCn1c(=O)c(Oc2ccc(F)cc2F)cc2cnc(NC3CCOCC3)nc21`
OUTPUT: > 25 µM

INPUT: Lookup `CC1=NC(C)(C)[N+]([O-])=C1`
OUTPUT: > 10 µM

INPUT: Lookup `c1coc(C2=Nc3cccc4cccc(c34)N2)c1`
OUTPUT: > 100 µM

INPUT: Lookup `C[C@H](CCC(=O)O)[C@H]1CC[C@H]2[C@@H]3CC[C@@H]4C[C@H](O)CC[C@]4(C)[C@H]3CC[C@]12C`
OUTPUT: > 100 µM

INPUT: Lookup CC#CC#C/C=C1/O[C@]2(CCC(OC(=O)CC(C)C)CO2)[C@@H]2O[C@H]12 (some centres undefined)
OUTPUT: > 100 µM

INPUT: Lookup CC1(C)CN(c2cc(C(F)(F)F)cc3cncn23)CCC12NC(=O)NC2=O (centres undefined)
OUTPUT: > 100 µM

INPUT: Lookup `CN(C)c1cc[n+](/C(NS(=O)(=O)c2cc(C(=O)Nc3ccc(Cl)cc3)c(Cl)cc2[S-])=C(\C#N)C(=O)c2ccccc2)cc1`
OUTPUT: > 100 µM

INPUT: Lookup `O=C1C(c2c(O)[nH]c3ccc([N+](=O)[O-])cc23)=Nc2ccccc21`
OUTPUT: > 100 µM

INPUT: Lookup COC(=O)CN(CC1O[C@@H]2OC(C)(C)O[C@@H]2C1N=[N+]=[N-])C(=O)OCc1ccccc1 (some centres undefined)
OUTPUT: > 100 µM

INPUT: Lookup `O=C(/C=C/NC(=O)OCc1ccccc1)OCc1ccccc1`
OUTPUT: > 100 µM

INPUT: Lookup `Nc1nonc1C(=Nc1ccc(F)c(Cl)c1)NO`
OUTPUT: > 100 µM

INPUT: Lookup `CCn1cc(C(=O)O)c(=O)c2cc(F)c(N3CCN(CN4C(=O)/C(=N\c5ncc(Cc6cc(OC)c(OC)c(OC)c6)c(N)n5)c5cc(Cl)ccc54)CC3)cc21`
OUTPUT: > 100 µM
